Assay: Solubility test (saturated solution, HPLC)
Assay type: physicochemical
Conditions: purified water and solutions at pH 1.2, pH 4.0 and pH 6.8, aqueous buffer, thermodynamic from solid, purified water and solutions at pH 1.2, pH 4.0 and pH 6.8; read-out: solubility (range over all media)

| STRUCTURE AS SMILES | solubility at 1 h |
| --- | --- |
| C/C(=C(\CCOP(=O)(O)O)SC(=O)c1ccccc1)N(C=O)Cc1cnc(C)nc1N | 3000 to 6600 µg/mL |
